For each record, write down the corresponding pKd.
Biological target: T1, GFP-9S library array, motif 4 ND N98G;D124F (synthetic construct, N98G;D124F)
T1 chain: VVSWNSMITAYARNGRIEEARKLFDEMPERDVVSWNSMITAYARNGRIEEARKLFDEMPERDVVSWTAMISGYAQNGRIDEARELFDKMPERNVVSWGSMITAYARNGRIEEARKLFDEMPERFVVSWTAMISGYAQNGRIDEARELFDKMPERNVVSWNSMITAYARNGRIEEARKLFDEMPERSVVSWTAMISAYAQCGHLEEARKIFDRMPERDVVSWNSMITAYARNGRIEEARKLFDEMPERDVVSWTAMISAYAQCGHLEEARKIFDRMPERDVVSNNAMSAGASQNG
Assay: high-throughput RNA pulldown from lysate on Ni-NTA beads; HRP: 50 mM Tris pH 8, 150 mM NaCl, 1 mM beta-mercaptoethanol, 50 ug/ml BSA, 3 ug/ml yeast RNA, 0.5% heparin; ITC and FP: Tris pH 8, 200 mM KCl, 5% glycerol; MST: 50 mM Tris pH 8, 200 mM NaCl, 1 mM DTT, BSA, heparin, 0.05% Tween 20
Settings: tags: N-terminal His-eGFP; label: 5' IRDye 800CW
Give only the number. pKd is defined as minus log10 of concentration in molar units.

Look up and report measured pKd for this entry: AUUAAACGUGA (ssRNA) [IR-rpoA-A] 6.66

Look up and report measured pKd for this entry: AUUAUACGUGA (ssRNA) [IR-rpoA-U] 6.93

Values were extracted from paper PMC8809517.
